Listing of entries alongside the reported growth.
system: BT-549 breast; experiment: NCI-60 one-dose screen, 48 h (100 = growth as untreated, 0 = no growth, -100 = all killed); settings: 10 µM unless noted
Compounds without any hit were thinned out: in the full panel of roughly 83,000, 20% have a hit.
// return numeric value only (unit: %, not printed)

molecule | scale-unit | growth
O=C(N/N=C/c1cccc(O)c1)c1ccccc1Nc1cccc(C(F)(F)F)c1 | % | 67.3
NC(=O)C1(N2CCCCC2)CCN(CCCC(=O)c2ccc(F)cc2)CC1 | % | 56.3
CN(C)c1ccc(-c2c(C#N)c(N)n3nc(N)c(C#N)c3c2C#N)cc1 | % | 69.1

So what does the record say about growth for O=C(O)/C=C\C(=O)N1C/C(=C\c2ccccc2Cl)C(=O)/C(=C/c2ccccc2Cl)C1 ?
-57

Record: Cc1nc2sc(C(=O)Nc3ccccc3)c(N)c2cc1C(=O)c1ccc(C(F)(F)F)cc1
100

###

tested on: IGROV1 ovarian; assay: NCI-60 one-dose screen, 48 h (100 = growth as untreated, 0 = no growth, -100 = all killed); settings: 10 µM unless noted
The panel holds about 83,000 compounds, 20% with a hit somewhere; the sample as a whole holds those more often.
Reported growth by item:
Write it as a number; the unit % goes unstated.

Worked cases, answers included:
molecule | reading
COc1ccccc1OCC(=O)N1CCCCCC1 | 104
O=S(=O)(NCCCNc1nccc(-c2c(-c3ccccc3)nc3occn23)n1)c1ccc(Cl)cc1 | 75.7

Which growth value is on record for CCc1c(Nc2ccc(C)cc2)[nH]c(N)nc1=S ?
104

// repeat for Cc1cc(C(=O)Nc2ncnc3nc[nH]c23)no1 and report
89.6

Okay, and O=C(Nc1ccc2cc3ccc(NC(=O)NC4CCCCC4)cc3nc2c1)NC1CCCCC1 ?
99.9

Item: C/C(=C(/c1ccccc1)c1ccc(OCC(O)CN2CCOCC2)cc1)c1ccccc1 (centres undefined)
96.2

###

system: RXF 393 renal; assay: NCI-60 one-dose screen, 48 h (100 = growth as untreated, 0 = no growth, -100 = all killed); conditions: 10 µM unless noted
This is part of a sample that, as a whole, favours compounds with a hit. Of some 83,000 tested, about 20% had one in any assay.
property-name: growth (%)
Only the number, expressed in %, is required.

// solved cases for growth follow
given-smiles | scale-unit | growth
C=C(C)[C@@H]1CC[C@]2(CO)CC[C@]3(C)[C@H](CC[C@@H]4[C@@]5(C)CCCNC(C)(C)[C@@H]5CC[C@]43C)[C@@H]12 | % | 48.4
Cc1nccc2c3ccc(OCc4cn(-c5ccc(Cl)cc5)nn4)cc3n(CCCc3ccccc3)c12 | % | -2.27
C=C1C(=O)O[C@H]2[C@H]1CC/C(COC(=O)CCCCCC(=O)OC/C1=C/CC[C@@]3(C)O[C@H]3[C@H]3OC(=O)C(=C)[C@@H]3CC1)=C\CC[C@@]1(C)O[C@@H]21 | % | -77.3

Now let's try a different one.
Given the entry CO[C@@H]1[C@H](N(C)C(=O)c2ccccc2)C[C@@H]2O[C@]1(C)n1c3ccccc3c3c4c(c5c6ccccc6n2c5c31)C(=O)NC4=O , report its measured growth.
-37.8

###

tested on: NCI-H226 lung; experiment: NCI-60 one-dose screen, 48 h; conditions: 10 µM unless noted
Compounds without any hit were thinned out: in the full panel of roughly 83,000, 20% have a hit. Calls of active or inactive are those of the source. Rule for the calls: active = growth percent below 10; inactive = the rest.
Use one of these outcomes when replying: active, inactive

# count of solved cases: 10
molecule | class-assignment
COc1ccc(CNC(=O)COc2ccc(/C=N/Nc3nc4ccccc4s3)cc2)cc1 | inactive
COc1cccc(CCC(=O)c2cc3c(N)c(C(=O)Nc4cccc(Cl)c4C)sc3nc2C)c1 | inactive
Cn1c(COC(=O)NCCn2ccnc2)nc2c(N3CCOCC3)nc(-c3ccccc3)nc21 | active
CCn1cc(C2NC(=O)c3ccccc3N2)c2cccc(C)c21 (configuration not stated) | inactive
Cc1cc(C(=O)Nc2ncnc3nc[nH]c23)no1 | inactive
COc1ccc2c(c1)OC13Oc4cc(OC)ccc4C=C1CCCC3=C2 | inactive
CC1(C)CN(c2cnc(C(=O)Nc3cc(F)cc4cccnc34)cn2)CCN1 | inactive
COc1cc(CCNc2nc3cc(N)cc(N)c3nc2-c2ccccc2)cc(OC)c1 | inactive
O=C1CCC(NC(=S)Nc2ccccc2)N1 (configuration not stated) | inactive
COc1ccc(-c2nc(N/N=C/c3cccc(Br)c3)nc(N3CCOCC3)c2C#N)cc1 | inactive

Which outcome was entered for the molecule CCOC(=O)N1CCc2c(sc3nc4nc[nH]n4c(=O)c23)C1 in this test?
inactive

Next molecule up: O=C(Nc1ccc2cc3ccc(NC(=O)NC4CCCCC4)cc3nc2c1)NC1CCCCC1
inactive

Same thing, different molecule: O=C1CCCN1c1cccc2cccnc12
inactive

What do you get for Cc1ccc(O)c(C(=O)O)c1 ?
inactive

// query: COc1cccc(C(Cc2ccccc2)Nc2ccccc2)c1OC (configuration not stated)
inactive
